Biological target: Na^+,K^+ -ATPase
Type: binding
Details: ^3 H-ouabain displacement, purified Na^+,K^+ -ATPase receptor
Recorded Endpoint: Binding ^3 H-Ouab. Displacement log IC50
One number for each entry.

Okay, here is my list. What is Binding ^3 H-Ouab. Displacement log IC50 for each of these?
1. CN(C)c1ccc([C@@]2(O)CC[C@]3(O)[C@@H]4CC[C@@H]5C[C@@H](O)CC[C@]5(C)[C@H]4CC[C@]23C)cc1
2. C[C@]12CC[C@H](OCCN3CCCC3)C[C@H]1CC[C@@H]1[C@@H]2CC[C@]2(C)[C@@](OCCN3CCCC3)(c3ccccc3)CC[C@]12O
3. C[C@]12CC[C@H](OCCO)C[C@H]1CC[C@@H]1[C@@H]2CC[C@]2(C)[C@@](O)(c3ccccc3)CC[C@]12O

1. 5.7
2. 5.0
3. 5.2
